The entries below come with measured V183D/yield of O-glycoside(%) values attached.
- TARGET_SYSTEM: AbCGT V183D (Aloe vera, UniProt A0A7G9P699, V183D)
- Sequence (A0A7G9P699 1-470 V183D): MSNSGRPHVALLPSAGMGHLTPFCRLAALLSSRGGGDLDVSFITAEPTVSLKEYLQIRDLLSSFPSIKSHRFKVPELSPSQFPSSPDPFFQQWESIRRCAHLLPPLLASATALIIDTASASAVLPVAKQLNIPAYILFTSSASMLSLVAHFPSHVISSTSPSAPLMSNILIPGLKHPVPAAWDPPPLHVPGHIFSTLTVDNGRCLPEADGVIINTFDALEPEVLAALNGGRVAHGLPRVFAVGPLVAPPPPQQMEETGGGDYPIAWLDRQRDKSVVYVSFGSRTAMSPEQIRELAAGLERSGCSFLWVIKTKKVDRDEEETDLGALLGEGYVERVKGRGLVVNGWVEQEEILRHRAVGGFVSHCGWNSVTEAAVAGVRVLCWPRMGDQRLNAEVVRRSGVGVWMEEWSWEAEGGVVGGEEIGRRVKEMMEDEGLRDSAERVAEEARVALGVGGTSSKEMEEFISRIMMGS
- ASSAY_TEXT: Glycosyltransferase activity of AbCGT variant V183D
- Type: biochemical, Aloe barbadensis
- CONDITION: reaction-1
Unit % implied. Number only.

Examples with answers:
CC(=O)c1cc(O)cc(O)c1 [Compound 4, 3,5-dihydroxyacetophenone] = 0
CC(=O)c1ccc(O)cc1 = 0
CC(=O)c1c(O)cccc1O = 0

Consider the additional molecule presented here.
Please fill in: V183D/yield of O-glycoside(%) reported for CC(=O)c1ccc(O)cc1O [Compound 6, 2,4-dihydroxyacetophenone] = 1

###

- TARGET_SYSTEM: AbCGT (Aloe vera)
- ASSAY_TEXT: Glycosyltransferase activity assay, purified AbCGT (wild type) with aglycon acceptors and UDP-Glc
- Assay type: biochemical, Aloe barbadensis
- CONDITION: reaction-3
Rule: WT/yield of O-glycoside(%) below 30% gives condition met, anything at or above gives condition not met.

Example cases with answers are listed next.
COc1cc(O)c(C(C)=O)c(OC)c1 [Compound 14] = condition met
COc1cc(O)c(C(C)=O)c(O)c1 [Compound 13] = condition met
CC(=O)c1ccccc1O [Compound 1] = condition met
CC(=O)c1ccc(O)cc1O [Compound 6, 2,4-dihydroxyacetophenone] = condition not met

Now, please, on to the next compound.
Exercise: Given CC(=O)c1c(O)cccc1O [Compound 5] , is recorded WT/yield of O-glycoside(%) strictly lower than 30%?
Key: condition not met

###

- TARGET_SYSTEM: AbCGT (Aloe vera, UniProt A0A7G9P699)
- ASSAY_TEXT: Glycosyltransferase activity assay, purified AbCGT (wild type) with aglycon acceptors and UDP-Glc
- Type: biochemical, Aloe barbadensis
- CONDITION: reaction-3
The entries below come with measured WT/yield of C-glycoside(%) values attached.

Examples with answers:
CC(=O)c1ccc(O)cc1O [Compound 6, 2,4-dihydroxyacetophenone] = 26%
CC(=O)c1cccc(O)c1 = 0%
CC(=O)c1c(O)cccc1O = 14.7%
Oc1cc(O)cc(OCCCCCCc2ccccc2)c1 = 9.5%
COc1cc(O)c(C(C)=O)c(OC)c1 = 0%

Consider the additional compound presented here.
Please fill in: WT/yield of C-glycoside(%) reported for CC(=O)c1ccc(O)cc1 = 0%

These measurements were taken from paper PMC7558026.
